# credit: ChEMBL document CHEMBL5608180

# Tested on: Trypanosoma cruzi
# Procedure summary: Antiparasitic activity against epimastigote form of Trypanosoma cruzi DA (TcI) assessed as inhibition of parasite growth incubated for 96 hrs followed by incubation with resazurin for 4 to 6 hrs by resazurin dye based fluorescence analysis
# Type: functional, organism-based
pIC50: −log10 of the molar value.
Would you mind labelling by pIC50? At or over 5 is Satisfied, under is Not satisfied.

compound=CN(C)c1ccc(Nc2c3ccc(NC(=O)CCN4CCCC4)cc3nc3cc(NC(=O)CCN4CCCC4)ccc23)cc1 cat="Not satisfied"
compound=Cc1sc(-c2ccc(CCN(C)C)cc2)cc1C1=C(c2cc(-c3ccc(CCN(C)C)cc3)sc2C)CCC1 cat=Satisfied
compound=C[C@]12SC(c3ccncc3)=CC1=C1CCCC1=C1C=C(c3ccncc3)S[C@@]12C cat="Not satisfied"
compound=C[C@]12SC(c3ccc(-c4ccncc4)cc3)=CC1=C1CCCC1=C1C=C(c3ccc(-c4ccncc4)cc3)S[C@@]12C cat="Not satisfied"
compound=Cc1sc(-c2ccc(CN3CCCC3)cc2)cc1C1=C(c2cc(-c3ccc(CN4CCCC4)cc3)sc2C)CCC1 cat=Satisfied
compound=C[C@]12SC(c3ccc4cccnc4c3)=CC1=C1CCCC1=C1C=C(c3ccc4cccnc4c3)S[C@@]12C cat="Not satisfied"
compound=Cc1sc(-c2ccc(CC[N+](C)(C)C)cc2)cc1C1=C(c2cc(-c3ccc(CC[N+](C)(C)C)cc3)sc2C)CCC1 cat=Satisfied
compound=C[C@]12SC(c3ccc(CN4CCCC4)cc3)=CC1=C1CCCC1=C1C=C(c3ccc(CN4CCCC4)cc3)S[C@@]12C cat="Not satisfied"
compound=C[C@]12SC(c3ccc(N4CCNCC4)cc3)=CC1=C1CCCC1=C1C=C(c3ccc(N4CCNCC4)cc3)S[C@@]12C cat="Not satisfied"
compound=Cc1sc(-c2cccc3cc[n+](C)cc23)cc1C1=C(c2cc(-c3cccc4cc[n+](C)cc34)sc2C)CCC1.[I-].[I-] cat="Not satisfied"
compound=Cc1sc(-c2cccc3c2ccc[n+]3C)cc1C1=C(c2cc(-c3cccc4c3ccc[n+]4C)sc2C)CCC1 cat="Not satisfied"
compound=NCCOc1cc(C(=O)Nc2cc(OCCN)c3ccccc3n2)nc(C(=O)Nc2cc(OCCN)c3ccccc3n2)c1 cat="Not satisfied"
compound=Cc1sc(-c2ccc(-c3cc[n+](C)cc3)cc2)cc1C1=C(c2cc(-c3ccc(-c4cc[n+](C)cc4)cc3)sc2C)CCC1 cat="Not satisfied"
compound=Cc1sc(-c2cc[n+](C)cc2)cc1C1=C(c2cc(-c3cc[n+](C)cc3)sc2C)CCC1 cat="Not satisfied"

====

# Procedure summary: Selectivity index, ratio of IC50 for cytotoxicity against human MRC5 cells to IC50 for antiparasitic activity against epimastigote form of Trypanosoma cruzi DA (TcI)
# Assay type: toxicity, cell-based
# Measurement parameters: read-out: Ratio IC50
Endpoint: selectivity ratio

compound=NCCOc1cc(C(=O)Nc2cc(OCCN)c3ccccc3n2)nc(C(=O)Nc2cc(OCCN)c3ccccc3n2)c1 measurement="< 1"
compound=Cc1sc(-c2ccc(N3CCNCC3)cc2)cc1C1=C(c2cc(-c3ccc(N4CCNCC4)cc3)sc2C)CCC1 measurement="< 1"
compound=Cc1sc(-c2ccc(CN3CCCC3)cc2)cc1C1=C(c2cc(-c3ccc(CN4CCCC4)cc3)sc2C)CCC1 measurement=1.2
compound=Cc1sc(-c2ccc(CC[N+](C)(C)C)cc2)cc1C1=C(c2cc(-c3ccc(CC[N+](C)(C)C)cc3)sc2C)CCC1 measurement="< 1"
compound=C[C@]12SC(c3ccc(CN4CCCC4)cc3)=CC1=C1CCCC1=C1C=C(c3ccc(CN4CCCC4)cc3)S[C@@]12C measurement="< 1"
compound=Cc1sc(-c2cc[n+](C)cc2)cc1C1=C(c2cc(-c3cc[n+](C)cc3)sc2C)CCC1 measurement="< 1"
compound=Cc1sc(-c2cccc3c2ccc[n+]3C)cc1C1=C(c2cc(-c3cccc4c3ccc[n+]4C)sc2C)CCC1 measurement=1.4
compound=CN(C)c1ccc(Nc2c3ccc(NC(=O)CCN4CCCC4)cc3nc3cc(NC(=O)CCN4CCCC4)ccc23)cc1 measurement="< 1"
compound=C[C@]12SC(c3ccncc3)=CC1=C1CCCC1=C1C=C(c3ccncc3)S[C@@]12C measurement="< 1"
compound=C[C@]12SC(c3ccc4cccnc4c3)=CC1=C1CCCC1=C1C=C(c3ccc4cccnc4c3)S[C@@]12C measurement=4
compound=Cc1sc(-c2cccc3cc[n+](C)cc23)cc1C1=C(c2cc(-c3cccc4cc[n+](C)cc34)sc2C)CCC1.[I-].[I-] measurement=2.9
compound=CN(C)CCc1ccc(C2=CC3=C4CCCC4=C4C=C(c5ccc(CCN(C)C)cc5)S[C@]4(C)[C@@]3(C)S2)cc1 measurement="< 1"
compound=C[C@]12SC(c3ccc(-c4ccncc4)cc3)=CC1=C1CCCC1=C1C=C(c3ccc(-c4ccncc4)cc3)S[C@@]12C measurement="< 1"
compound=Cc1sc(-c2ccc(-c3cc[n+](C)cc3)cc2)cc1C1=C(c2cc(-c3ccc(-c4cc[n+](C)cc4)cc3)sc2C)CCC1 measurement="< 1"
compound=Cc1sc(-c2ccc(CCN(C)C)cc2)cc1C1=C(c2cc(-c3ccc(CCN(C)C)cc3)sc2C)CCC1 measurement="< 1"
compound=C[C@]12SC(c3ccc(N4CCNCC4)cc3)=CC1=C1CCCC1=C1C=C(c3ccc(N4CCNCC4)cc3)S[C@@]12C measurement="< 1"

====

# Procedure summary: Cytotoxicity against human MRC5 cells
# Format: toxicity, cell-based
pIC50: −log10 of the molar value.
Endpoint: pIC50

compound=Cc1sc(-c2cc[n+](C)cc2)cc1C1=C(c2cc(-c3cc[n+](C)cc3)sc2C)CCC1 endpoint=pIC50 measurement=5.62
compound=C[C@]12SC(c3ccc4cccnc4c3)=CC1=C1CCCC1=C1C=C(c3ccc4cccnc4c3)S[C@@]12C endpoint=pIC50 measurement=4.08
compound=Cc1sc(-c2ccc(CC[N+](C)(C)C)cc2)cc1C1=C(c2cc(-c3ccc(CC[N+](C)(C)C)cc3)sc2C)CCC1 endpoint=pIC50 measurement=5.57
compound=Cc1sc(-c2ccc(N3CCNCC3)cc2)cc1C1=C(c2cc(-c3ccc(N4CCNCC4)cc3)sc2C)CCC1 endpoint=pIC50 measurement=5.10
compound=Cc1sc(-c2ccc(-c3cc[n+](C)cc3)cc2)cc1C1=C(c2cc(-c3ccc(-c4cc[n+](C)cc4)cc3)sc2C)CCC1 endpoint=pIC50 measurement=5.66
compound=Cc1sc(-c2cccc3cc[n+](C)cc23)cc1C1=C(c2cc(-c3cccc4cc[n+](C)cc34)sc2C)CCC1.[I-].[I-] endpoint=pIC50 measurement=4.21
compound=C[C@]12SC(c3ccc(N4CCNCC4)cc3)=CC1=C1CCCC1=C1C=C(c3ccc(N4CCNCC4)cc3)S[C@@]12C endpoint=pIC50 measurement=5.37
compound=CN(C)CCc1ccc(C2=CC3=C4CCCC4=C4C=C(c5ccc(CCN(C)C)cc5)S[C@]4(C)[C@@]3(C)S2)cc1 endpoint=pIC50 measurement=5.21
compound=Cc1sc(-c2cccc3c2ccc[n+]3C)cc1C1=C(c2cc(-c3cccc4c3ccc[n+]4C)sc2C)CCC1 endpoint=pIC50 measurement=4.69
compound=O=C(Cn1ccnc1[N+](=O)[O-])NCc1ccccc1 endpoint=pIC50 measurement=4.33
compound=C[C@]12SC(c3ccc(-c4ccncc4)cc3)=CC1=C1CCCC1=C1C=C(c3ccc(-c4ccncc4)cc3)S[C@@]12C endpoint=pIC50 measurement=5.31
compound=C[C@]12SC(c3ccncc3)=CC1=C1CCCC1=C1C=C(c3ccncc3)S[C@@]12C endpoint=pIC50 measurement=5.48
compound=Cc1sc(-c2ccc(CCN(C)C)cc2)cc1C1=C(c2cc(-c3ccc(CCN(C)C)cc3)sc2C)CCC1 endpoint=pIC50 measurement=5.59
compound=C[C@]12SC(c3ccc(CN4CCCC4)cc3)=CC1=C1CCCC1=C1C=C(c3ccc(CN4CCCC4)cc3)S[C@@]12C endpoint=pIC50 measurement=4.65
compound=Cc1sc(-c2ccc(CN3CCCC3)cc2)cc1C1=C(c2cc(-c3ccc(CN4CCCC4)cc3)sc2C)CCC1 endpoint=pIC50 measurement=5.14

====

# Test system: Trypanosoma cruzi
# Procedure summary: Antiparasitic activity against epimastigote form of Trypanosoma cruzi Y(TcII) assessed as inhibition of parasite growth incubated for 96 hrs followed by incubation with resazurin for 4 to 6 hrs by resazurin dye based fluorescence analysis
# Format: functional, organism-based
pIC50: −log10 of the molar value.
Would you mind labelling by pIC50? At or over 5 is Yes, under is No.

compound=Cc1sc(-c2ccc(N3CCNCC3)cc2)cc1C1=C(c2cc(-c3ccc(N4CCNCC4)cc3)sc2C)CCC1 target_under_test="Trypanosoma cruzi" cat=No
compound=Cc1sc(-c2ccc(CCN(C)C)cc2)cc1C1=C(c2cc(-c3ccc(CCN(C)C)cc3)sc2C)CCC1 target_under_test="Trypanosoma cruzi" cat=Yes
compound=C[C@]12SC(c3ccc(-c4ccncc4)cc3)=CC1=C1CCCC1=C1C=C(c3ccc(-c4ccncc4)cc3)S[C@@]12C target_under_test="Trypanosoma cruzi" cat=No
compound=Cc1sc(-c2ccc(-c3cc[n+](C)cc3)cc2)cc1C1=C(c2cc(-c3ccc(-c4cc[n+](C)cc4)cc3)sc2C)CCC1 target_under_test="Trypanosoma cruzi" cat=No
compound=NCCOc1cc(C(=O)Nc2cc(OCCN)c3ccccc3n2)nc(C(=O)Nc2cc(OCCN)c3ccccc3n2)c1 target_under_test="Trypanosoma cruzi" cat=No
compound=CN(C)CCc1ccc(C2=CC3=C4CCCC4=C4C=C(c5ccc(CCN(C)C)cc5)S[C@]4(C)[C@@]3(C)S2)cc1 target_under_test="Trypanosoma cruzi" cat=No
compound=C[C@]12SC(c3ccc(CN4CCCC4)cc3)=CC1=C1CCCC1=C1C=C(c3ccc(CN4CCCC4)cc3)S[C@@]12C target_under_test="Trypanosoma cruzi" cat=No
compound=Cc1sc(-c2cccc3cc[n+](C)cc23)cc1C1=C(c2cc(-c3cccc4cc[n+](C)cc34)sc2C)CCC1.[I-].[I-] target_under_test="Trypanosoma cruzi" cat=No
compound=CN(C)c1ccc(Nc2c3ccc(NC(=O)CCN4CCCC4)cc3nc3cc(NC(=O)CCN4CCCC4)ccc23)cc1 target_under_test="Trypanosoma cruzi" cat=No
compound=C[C@]12SC(c3ccc4cccnc4c3)=CC1=C1CCCC1=C1C=C(c3ccc4cccnc4c3)S[C@@]12C target_under_test="Trypanosoma cruzi" cat=No
compound=Cc1sc(-c2ccc(CN3CCCC3)cc2)cc1C1=C(c2cc(-c3ccc(CN4CCCC4)cc3)sc2C)CCC1 target_under_test="Trypanosoma cruzi" cat=Yes
compound=C[C@]12SC(c3ccc(N4CCNCC4)cc3)=CC1=C1CCCC1=C1C=C(c3ccc(N4CCNCC4)cc3)S[C@@]12C target_under_test="Trypanosoma cruzi" cat=No
compound=O=C(Cn1ccnc1[N+](=O)[O-])NCc1ccccc1 target_under_test="Trypanosoma cruzi" cat=No
